Measured kon, listed per entry for reference.
molecular target: T1, rhIL-21-His (AB235875-1001, Abcam) (human, UniProt Q9HBE4 30-162); test: SPR, Fab on captured rhIL-21-His
T1 construct: bought; not shown: His tag, length and position not described
T1 sequence (Q9HBE4 30-162 limits assumed): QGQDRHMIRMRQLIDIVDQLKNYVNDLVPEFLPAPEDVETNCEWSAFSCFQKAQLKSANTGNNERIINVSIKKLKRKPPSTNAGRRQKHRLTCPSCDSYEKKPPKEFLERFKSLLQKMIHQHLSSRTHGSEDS
Give your result in M⁻¹ s⁻¹ as a bare value.

- Binder: "OWS965 Fab (Fab, V domains shown, Fab) VH: QVQLQESGPGLVKPSETLSLTCTVSGGSISSDYWGWIRQPPGKGLEWIGYISYSGSTNYNPSLKSRVTISVDTSRNQFSLKLSSVTAADTAVYYCARSAGVADFDAWGQGTLVTVSS VL: DIQLTQSPSSVSASVGDRVTITCRASQGISSWLAWYQHKPGKAPKLLIYVASSLQSGVPSRFSGSGSGTDFTLTISSLQPEDFATYYCQQASSFPLTFGGGTKVEIK"
  Measure Name: "kon"
  Test Result: 87000
- Binder: "JSQ278 Fab (Fab, V domains shown, Fab) VH: QVQLQESGPGLVKPSETLSLTCTVSGGSISSDYWGWIRQPPGKGLEWIGYISYRGSTNYNPSLKSRVTISVDTSRNQFSLKLSSVTAADTAVYYCARSAGVTDFDAWGQGTLVTVSS VL: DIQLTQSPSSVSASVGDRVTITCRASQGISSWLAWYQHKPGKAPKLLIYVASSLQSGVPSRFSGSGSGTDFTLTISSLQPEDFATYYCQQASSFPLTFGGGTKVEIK"
  Measure Name: "kon"
  Test Result: 270000

Reported kon, binder MEK904 Fab (Fab, V domains shown, Fab) VH: QVQLQESGPGLVKPSETLSLTCTVSGGSISSDYWGWIRQPPGKGLEWIGYISYRGSTNYNPSLKSRVTISVDTSRNQFSLKLSSVTAADTAVYYCARSAGVADFDFWGQGTLVTVSS VL: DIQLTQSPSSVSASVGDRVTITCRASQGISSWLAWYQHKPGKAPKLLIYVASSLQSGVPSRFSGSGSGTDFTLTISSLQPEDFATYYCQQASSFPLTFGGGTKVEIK : ____
210000
